- assay.notes: Phase 1 trial: population PK model (NONMEM, 1-compartment, oral absorption) and simulations
- condition.context: human, in vivo, po, 11 mg
recorded.metric: AUC (ng·h/mL)
Report the figure in ng·h/mL without appending any unit label.

GET /value?item= O=[Se](O)O [sodium selenite, Sodium selenite pentahydrate] &field=AUC returns 6250

###

- assay.notes: Phase 1 trial: population PK model (NONMEM, 1-compartment, oral absorption) and simulations
- condition.context: both, human, in vivo, 33000 mcg
recorded.metric: Cmax (ng/mL)
// note: answer is a bare numeric in ng/mL

Value of measured Cmax for the entry O=[Se](O)O [sodium selenite, Sodium selenite pentahydrate] : 496
